Each recorded value in this set is attributed to patent US20140127211A1.

Molecular target: full-length human Notch3 expressed on the cell surface (human, UniProt Q9UM47 40-2321)
Sequence (Q9UM47 40-2321): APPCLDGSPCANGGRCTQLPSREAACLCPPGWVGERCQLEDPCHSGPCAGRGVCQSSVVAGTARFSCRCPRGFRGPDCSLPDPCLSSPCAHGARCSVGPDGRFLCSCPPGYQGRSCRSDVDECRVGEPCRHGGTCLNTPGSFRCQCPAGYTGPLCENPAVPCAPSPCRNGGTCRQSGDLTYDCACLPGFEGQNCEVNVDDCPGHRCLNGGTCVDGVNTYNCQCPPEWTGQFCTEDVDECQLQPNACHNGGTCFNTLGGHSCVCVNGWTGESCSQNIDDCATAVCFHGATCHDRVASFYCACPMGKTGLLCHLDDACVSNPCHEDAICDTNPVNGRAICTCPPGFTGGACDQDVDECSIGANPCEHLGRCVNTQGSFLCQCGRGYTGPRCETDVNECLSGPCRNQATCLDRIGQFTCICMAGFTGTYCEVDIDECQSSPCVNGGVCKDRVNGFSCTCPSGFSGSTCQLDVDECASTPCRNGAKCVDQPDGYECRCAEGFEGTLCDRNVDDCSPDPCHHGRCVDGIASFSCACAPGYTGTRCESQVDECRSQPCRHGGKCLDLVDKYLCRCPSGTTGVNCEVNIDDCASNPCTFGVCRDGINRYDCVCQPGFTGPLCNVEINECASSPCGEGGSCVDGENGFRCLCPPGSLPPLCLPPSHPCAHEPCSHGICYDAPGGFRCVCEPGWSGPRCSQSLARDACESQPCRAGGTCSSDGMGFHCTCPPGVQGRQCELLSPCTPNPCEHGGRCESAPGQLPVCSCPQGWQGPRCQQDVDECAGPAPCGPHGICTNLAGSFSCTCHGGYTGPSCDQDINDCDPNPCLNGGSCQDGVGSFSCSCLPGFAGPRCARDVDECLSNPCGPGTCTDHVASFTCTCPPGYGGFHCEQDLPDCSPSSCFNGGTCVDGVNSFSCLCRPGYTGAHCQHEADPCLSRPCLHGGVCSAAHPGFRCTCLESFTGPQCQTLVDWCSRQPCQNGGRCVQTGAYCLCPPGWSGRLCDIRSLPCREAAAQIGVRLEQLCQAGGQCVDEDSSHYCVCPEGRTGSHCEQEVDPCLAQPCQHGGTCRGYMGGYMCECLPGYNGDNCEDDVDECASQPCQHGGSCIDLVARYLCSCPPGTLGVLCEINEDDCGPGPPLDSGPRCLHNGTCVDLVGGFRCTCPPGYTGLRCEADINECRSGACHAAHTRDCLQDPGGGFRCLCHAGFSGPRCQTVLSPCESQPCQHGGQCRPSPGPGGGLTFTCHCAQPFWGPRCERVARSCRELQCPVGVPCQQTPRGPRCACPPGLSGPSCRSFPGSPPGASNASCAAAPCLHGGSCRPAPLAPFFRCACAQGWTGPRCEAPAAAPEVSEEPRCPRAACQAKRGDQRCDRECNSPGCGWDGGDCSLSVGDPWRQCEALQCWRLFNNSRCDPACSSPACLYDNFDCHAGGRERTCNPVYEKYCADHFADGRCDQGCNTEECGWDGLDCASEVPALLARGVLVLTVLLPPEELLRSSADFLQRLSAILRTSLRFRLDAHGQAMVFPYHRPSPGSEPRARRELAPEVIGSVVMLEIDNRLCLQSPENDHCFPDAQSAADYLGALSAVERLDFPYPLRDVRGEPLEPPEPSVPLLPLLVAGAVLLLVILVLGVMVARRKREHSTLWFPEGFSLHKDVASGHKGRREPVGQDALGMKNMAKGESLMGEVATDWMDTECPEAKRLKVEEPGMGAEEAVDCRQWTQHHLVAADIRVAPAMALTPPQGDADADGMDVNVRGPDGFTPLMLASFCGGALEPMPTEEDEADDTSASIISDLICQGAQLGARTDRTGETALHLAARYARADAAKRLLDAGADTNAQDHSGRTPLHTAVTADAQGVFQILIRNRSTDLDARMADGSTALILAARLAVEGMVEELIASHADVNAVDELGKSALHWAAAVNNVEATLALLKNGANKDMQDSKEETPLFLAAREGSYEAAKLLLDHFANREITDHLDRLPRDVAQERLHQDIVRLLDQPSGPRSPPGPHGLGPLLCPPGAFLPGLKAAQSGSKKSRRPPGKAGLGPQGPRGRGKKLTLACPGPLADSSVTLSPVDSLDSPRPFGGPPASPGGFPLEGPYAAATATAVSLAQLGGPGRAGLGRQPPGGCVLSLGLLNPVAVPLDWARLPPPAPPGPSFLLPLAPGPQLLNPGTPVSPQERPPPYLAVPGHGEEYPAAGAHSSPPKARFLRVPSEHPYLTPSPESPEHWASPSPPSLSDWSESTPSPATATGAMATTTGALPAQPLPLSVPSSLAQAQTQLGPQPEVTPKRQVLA
Test: cell-based or functional assay
recorded_endpoint: IC50 of cytotoxicity, MDA-MB-468/hNotch3 cells, control siRNA (ng Ab/mL)
Value expressed in ng Ab/mL; do not type the unit.

Documented IC50 of cytotoxicity, MDA-MB-468/hNotch3 cells, control siRNA of hu75-vc0101 (Notch3-75-v1913-hG1-(C)_mcValCitPABC-#54) (antibody, human IgG1, kappa, V domains shown, vc0101 linker-payload on cysteine residues after partial reduction; sites not specified, Antibody-drug conjugate of hu75) VH: EVQLVESGGGLVQPGGSLRLSCAASGYAFTDYWMTWVRQAPGKGLEWVAEISPNSGGTNFNEKFKGRFTISVDNAKNSLYLQMNSLRAEDTAVYYCARGEIRYNWFAYWGQGTLVTVSS VL: DIQMTQSPSSLSASVGDRVTITCKASQNVGNNIAWYQQKPGKAPKLLIYYASNRYTGVPSRFSGSGYGTDFTLTISSLQPEDFATYYCQRLYNSPFTFGGGTKVEIKR : 29
